These measurements were taken from patent US7112585B2.

Target: cloned human CRF-R1 receptors (Homo sapiens, UniProt P34998)
Sequence (P34998 24-415): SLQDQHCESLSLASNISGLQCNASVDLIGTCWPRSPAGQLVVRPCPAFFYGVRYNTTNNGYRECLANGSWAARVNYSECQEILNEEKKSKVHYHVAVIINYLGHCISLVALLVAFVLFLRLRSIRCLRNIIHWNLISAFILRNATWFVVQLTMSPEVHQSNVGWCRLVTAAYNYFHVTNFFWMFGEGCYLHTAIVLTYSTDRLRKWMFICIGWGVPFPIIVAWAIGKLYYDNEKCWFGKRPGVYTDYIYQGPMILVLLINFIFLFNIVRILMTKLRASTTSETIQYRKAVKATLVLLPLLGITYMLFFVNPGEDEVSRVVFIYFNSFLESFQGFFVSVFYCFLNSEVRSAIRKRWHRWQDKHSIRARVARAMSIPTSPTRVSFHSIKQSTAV
pKi: −log10 of the molar value.
Entries and their pKi

// known answers, use as guide
[
  {
    "smiles.code": "Cc1cc(C)c(Nc2nc(N(C)C)ncc2S(=O)(=O)c2cccc(OCc3ccccc3)c2)c(C)c1",
    "pKi": "5.30 to 6.30"
  },
  {
    "smiles.code": "Cc1cc(C)c(Nc2nc(C)ncc2S(=O)(=O)c2ccc(C#N)cc2)c(C)c1",
    "pKi": "5.30 to 6.30"
  },
  {
    "smiles.code": "Cc1cc(C)c(Nc2nc(C)ncc2S(=O)(=O)c2ccc(-c3ccncc3)cc2)c(C)c1",
    "pKi": "5.30 to 6.30"
  },
  {
    "smiles.code": "Cc1cc(C)c(Nc2nc(C)ncc2S(=O)(=O)c2ccc(OCc3ccccc3)cc2)c(C)c1",
    "pKi": "≥ 7.00"
  },
  {
    "smiles.code": "Cc1cc(C)c(Nc2nc(C)ncc2S(=O)(=O)c2ccc(-c3ccccn3)cc2)c(C)c1",
    "pKi": "≥ 7.00"
  }
]

// moving on: another record for pKi
*Q* Can you look up the measured pKi of COc1ccc(S(=O)(=O)c2cnc(C)nc2Cc2c(C)cc(C)cc2C)cc1 for me?
*A* 6.30 to 7.00

---

property: melting point

// known answers, use as guide
[
  {
    "smiles.code": "CC(=O)Oc1ccc(S(=O)(=O)c2cnc(C)nc2Nc2c(C)cc(C)cc2C)cc1",
    "melting point": "142 to 144 °C"
  },
  {
    "smiles.code": "Cc1cc(C)c(Nc2nc(C)ncc2S(=O)(=O)c2ccc(-c3ccccn3)cc2)c(C)c1",
    "melting point": "201 to 203 °C"
  },
  {
    "smiles.code": "Cc1cc(C)c(Nc2nc(C)ncc2S(=O)(=O)c2ccc(N(C)Cc3ccccc3)cc2)c(C)c1",
    "melting point": "146 to 148 °C"
  },
  {
    "smiles.code": "COc1ccc(S(=O)(=O)c2cnc(C)nc2Nc2c(C)cc(C)cc2C)cc1",
    "melting point": "153 to 155 °C"
  },
  {
    "smiles.code": "Cc1cc(C)c(Nc2nc(C)ncc2S(=O)(=O)c2ccc(-c3cccnc3)cc2)c(C)c1",
    "melting point": "190 to 192 °C"
  },
  {
    "smiles.code": "Cc1cc(C)c(Nc2nc(C)ncc2S(=O)(=O)c2ccc(N3CCOCC3)cc2)c(C)c1",
    "melting point": "221 to 223 °C"
  },
  {
    "smiles.code": "Cc1cc(C)c(Nc2nc(C)ncc2S(=O)(=O)c2ccc(O)cc2)c(C)c1",
    "melting point": "246 to 248 °C"
  },
  {
    "smiles.code": "Cc1cc(C)c(Cc2nc(C)ncc2S(=O)(=O)c2ccc(OCc3ccccc3)cc2)c(C)c1",
    "melting point": "166 to 168 °C"
  }
]

*Q* Can you look up the measured melting point of COc1ccc(Nc2nc(C)ncc2S(=O)(=O)c2ccc(OCc3ccccc3)cc2)c(C)c1 for me?
*A* 110 to 114 °C

*Q* Same thing, different compound: Cc1cc(C)c(Nc2nc(C)ncc2S(=O)(=O)c2ccc(F)cc2)c(C)c1
*A* 191 to 193 °C
